- target of assay: P2X purinoceptor 7 (Homo sapiens)
- Sequence (Q99572 whole entry): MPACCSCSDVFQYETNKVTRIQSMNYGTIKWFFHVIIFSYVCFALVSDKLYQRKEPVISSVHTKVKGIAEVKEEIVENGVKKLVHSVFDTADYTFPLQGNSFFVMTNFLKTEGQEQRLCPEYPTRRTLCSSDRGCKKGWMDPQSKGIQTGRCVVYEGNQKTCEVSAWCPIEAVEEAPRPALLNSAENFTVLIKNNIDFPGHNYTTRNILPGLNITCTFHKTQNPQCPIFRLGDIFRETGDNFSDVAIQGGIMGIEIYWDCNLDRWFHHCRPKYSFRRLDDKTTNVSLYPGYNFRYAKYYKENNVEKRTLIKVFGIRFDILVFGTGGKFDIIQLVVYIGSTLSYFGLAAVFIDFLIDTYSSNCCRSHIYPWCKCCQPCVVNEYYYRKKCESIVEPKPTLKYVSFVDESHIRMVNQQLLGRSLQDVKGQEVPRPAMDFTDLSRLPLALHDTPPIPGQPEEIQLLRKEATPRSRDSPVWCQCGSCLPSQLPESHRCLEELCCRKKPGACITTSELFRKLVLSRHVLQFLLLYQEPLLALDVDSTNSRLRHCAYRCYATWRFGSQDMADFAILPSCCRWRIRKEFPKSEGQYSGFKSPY
- method description: Antagonist activity at P2X7 receptor in human THP1 cells assessed as inhibition of BzATP-induced YO-PRO-1 Iodide uptake measured every 30 secs for 1 hr by fluorescence assay
- Assay type: cell-based
- details: read-out: IC50
reported endpoint: IC50 (µM)
Numeric answer only, unit µM assumed.

State its IC50: "O=C(NCCc1ccccc1)NCC12CC3CC(CC(C3)C1)C2" 6.41

State its IC50: "O=C(NCc1ccccn1)NCC12CC3CC(CC(C3)C1)C2" 5.95

State its IC50: "O=C(NCc1ccccc1)NCC12CC3CC(CC(C3)C1)C2" 4.54

State its IC50: "O=C(NCc1ccncc1)NCC12CC3CC(CC(C3)C1)C2" 6.75

State its IC50: "O=C(NCC12CC3CC(CC(C3)C1)C2)Nc1ccccc1" 4.96

State its IC50: "O=C(NCc1cccnc1)NCC12CC3CC(CC(C3)C1)C2" 3.38

State its IC50: "S=C(NCC12CC3CC(CC(C3)C1)C2)Nc1ccccc1" 2.42

State its IC50: "S=C(NCc1ccccc1)NCC12CC3CC(CC(C3)C1)C2" 4.24
